Test system: Plasmodium berghei
PROTOCOL_SUMMARY: Screen against P. berghei liver stage (PbLuc), transformed with Luciferase, at 10uM
Assay type: functional, HepG2
CONDITION_DETAILS: tested at 10 uM
Out of some 69,000 compounds screened, about 8,600 (12%) showed an effect of 50% or more. This is one part of a sample in which strong results are shown more often than they occur.
Kindly apply the following: met if INHIBITION is less than 40%, not met in every other case.

Consider the following illustrative entries.
compound=Cc1nc(=O)c(CC(=O)N2C[C@@H]3CC[C@H]2CN(C(=O)N(C)C)C3)c(C)[nH]1 system="Plasmodium berghei" category=met
compound=COC(=O)c1cnn(-c2cc(Oc3cccc(C)c3)ncn2)c1N system="Plasmodium berghei" category="not met"
compound="Cn1cc(CN2CCCC(CCc3ccc(F)c(F)c3)C2)cn1 (stereo not given)" system="Plasmodium berghei" category=met
compound=CCS(=O)(=O)N1CC[C@H]2[C@H]1CC(=O)N2Cc1csc(C)n1 system="Plasmodium berghei" category=met

Shift focus to the following entry.
Data request: Decide: INHIBITION of "c1cc(C2CCN(c3cnccn3)CC2)ccn1" strictly below 40%?
Data returned: met

---

Tested on: Plasmodium berghei
PROTOCOL_SUMMARY: Screen against P. berghei liver stage (PbLuc), transformed with Luciferase, at 10uM
Type: functional, HepG2
CONDITION_DETAILS: tested at 10 uM
Screen size: about 69,000 compounds; about 8,600 (12%) showed an effect of 50% or more. Only a selection was taken, and strong results are over-represented in it overall.
OUTCOME_MEASURE: INHIBITION (%)
Lab book: enter the figure in %, no units written.

compound=CSc1nccc(N2CCC(NCCN3CCOCC3)CC2)n1 outcome_measure=INHIBITION assay_result=53.6
compound="N#Cc1ccnc(N2CCN(C3CCOC3=O)CC2)c1 (stereo unspecified)" outcome_measure=INHIBITION assay_result=-33.1
compound="CN(Cc1cscn1)C(=O)C(c1ccccc1)N1CCSCC1 (stereo unspecified)" outcome_measure=INHIBITION assay_result=60.3

Data request: Name the reported INHIBITION value associated with the compound c1cnc(NCC2Cn3nnc(-c4ccsc4)c3CO2)nc1 (stereo unspecified)
Data returned: 45.1

Data request: Name the reported INHIBITION value associated with the compound Cc1cc(C)c2c(NC(C)c3nncn3C3CCCC3)ncnc2n1 (stereo unspecified)
Data returned: 35.1

Data request: Name the reported INHIBITION value associated with the compound Cc1cc(N(C)C)nc(C2(C)CCCN2CC(N)=O)n1 (stereo unspecified)
Data returned: 18.8

Data request: Name the reported INHIBITION value associated with the compound CCc1csc(C2CCCN(C(=O)c3ccc4[nH]nnc4c3)C2)n1 (stereo unspecified)
Data returned: -10.1

---

This listing pairs molecules with measured INHIBITION.
Test system: Plasmodium berghei
PROTOCOL_SUMMARY: Screen against P. berghei liver stage (PbLuc), transformed with Luciferase, at 10uM
Assay type: functional, HepG2
CONDITION_DETAILS: tested at 10 uM
Out of some 69,000 compounds screened, about 8,600 (12%) showed an effect of 50% or more. The entries come from a sample that favours strong results as a whole.
Lab book: enter the figure in %, no units written.

molecule=O=C(O)c1cccc2c(Br)cccc12 assay_result=73.9
molecule="CCCC(C)C(=O)N1CCC(n2cccc2C(=O)OC)CC1 (stereo not drawn)" assay_result=12.2
molecule=Cc1ccc(CN2C[C@H](OCC3CCOCC3)[C@H]3COC[C@H]32)o1 assay_result=-59.9

Data request: Name the reported INHIBITION value associated with the molecule "O=C(c1cc[nH]n1)N1CCc2onc(COc3cccnc3)c2C1"
Data returned: 67.2

Data request: Name the reported INHIBITION value associated with the molecule Cc1nccn1-c1cccc(C2CCCN2)n1 (stereo not drawn)
Data returned: -2.09

Data origin, for the record: ChEMBL document CHEMBL4513216
